# run-description: Single-dose pharmacokinetics of metapristone in rats (p.o. and i.v.), non-compartmental analysis
# Assay type: in vivo, Sprague Dawley (SD) rats
# test-conditions: male, Sprague-Dawley, rat, plasma, po, 45 mg/kg, male rats, p.o. 45 mg/kg; read-out: CL/F (converted)

compound: CC#C[C@]1(O)CC[C@H]2[C@@H]3CCC4=CC(=O)CCC4=C3[C@@H](c3ccc(NC)cc3)C[C@@]21C [metapristone, N-monodemethyl mifepristone]
CL/F: 782 mL/min/kg

* * *

# run-description: Single-dose pharmacokinetics of metapristone in rats (p.o. and i.v.), non-compartmental analysis
# Type: in vivo, Sprague Dawley (SD) rats
# test-conditions: Sprague-Dawley, rat, plasma, po; male rats, p.o. 22.5 mg/kg

smiles-repr: CC#C[C@]1(O)CC[C@H]2[C@@H]3CCC4=CC(=O)CCC4=C3[C@@H](c3ccc(NC)cc3)C[C@@]21C
half-life: 8 h

* * *

# run-description: Single-dose pharmacokinetics of metapristone in rats (p.o. and i.v.), non-compartmental analysis
# Type: in vivo, Sprague Dawley (SD) rats
# test-conditions: Sprague-Dawley, rat, plasma, iv; female rats, i.v. 10 mg/kg
attribute-measured: AUC(0-inf) (ng·h/mL)

smiles-repr: CC#C[C@]1(O)CC[C@H]2[C@@H]3CCC4=CC(=O)CCC4=C3[C@@H](c3ccc(NC)cc3)C[C@@]21C
attribute-measured: AUC(0-inf)
readout-value: 9810

* * *

# run-description: Single-dose pharmacokinetics of metapristone in rats (p.o. and i.v.), non-compartmental analysis
# Assay type: in vivo, Sprague Dawley (SD) rats
# test-conditions: Sprague-Dawley, rat, plasma, po; female rats, p.o. 22.5 mg/kg
attribute-measured: AUC(0-t) (ng·h/mL)

compound: CC#C[C@]1(O)CC[C@H]2[C@@H]3CCC4=CC(=O)CCC4=C3[C@@H](c3ccc(NC)cc3)C[C@@]21C [metapristone, N-monodemethyl mifepristone]
unit-abbrev: ng·h/mL
readout-value: 4050

* * *

# run-description: Single-dose pharmacokinetics of metapristone in rats (p.o. and i.v.), non-compartmental analysis
# Assay type: in vivo, Sprague Dawley (SD) rats
# test-conditions: Sprague-Dawley, rat, plasma, po; male rats, p.o. 90 mg/kg; read-out: V d /F

smiles-repr: CC#C[C@]1(O)CC[C@H]2[C@@H]3CCC4=CC(=O)CCC4=C3[C@@H](c3ccc(NC)cc3)C[C@@]21C
Vd/F, L/kg: 92.5

* * *

# run-description: Single oral dose pharmacokinetics of metapristone in beagle dogs, non-compartmental analysis
# Format: in vivo
# test-conditions: beagle, dog, plasma, po; female dogs, p.o. 5.6 mg/kg
attribute-measured: AUC(0-t) (ng·h/mL)

molecule: CC#C[C@]1(O)CC[C@H]2[C@@H]3CCC4=CC(=O)CCC4=C3[C@@H](c3ccc(NC)cc3)C[C@@]21C [metapristone, N-monodemethyl mifepristone]
readout-value: 560

* * *

# run-description: Single oral dose pharmacokinetics of metapristone in beagle dogs, non-compartmental analysis
# Type: in vivo
# test-conditions: beagle, dog, plasma, po; male dogs, p.o. 22.5 mg/kg

smiles-repr: CC#C[C@]1(O)CC[C@H]2[C@@H]3CCC4=CC(=O)CCC4=C3[C@@H](c3ccc(NC)cc3)C[C@@]21C
AUC(0-t): 1560 ng·h/mL

* * *

# run-description: Single-dose pharmacokinetics of metapristone in rats (p.o. and i.v.), non-compartmental analysis
# Assay type: in vivo, Sprague Dawley (SD) rats
# test-conditions: Sprague-Dawley, rat, plasma, po; male rats, p.o. 90 mg/kg; read-out: T max

smiles-repr: CC#C[C@]1(O)CC[C@H]2[C@@H]3CCC4=CC(=O)CCC4=C3[C@@H](c3ccc(NC)cc3)C[C@@]21C
Tmax [h]: 10.3

Source of measurements: paper PMC5719405
